Value source: paper PMC9884143

Molecular target: SARS-CoV-2 Spike receptor-binding domain (RBD), B.1.1.529 (Omicron) variant (SARS-CoV-2, Omicron B.1.1.529 (BA.1 RBD), strain)
Can you tell me pKd for the items I'm about to list?
Numbers only, as −log10 of the molar value.

The cases that follow already have their pKd on record.
CoV2-YD-14 (VHH) VHH: QVQLVESGGGLVQAGGSLRLSCSASGNTFSTYSLSWYRQAPGKQREFVAAISSGGSTSYANSVKGRFSISRDNAKKTMYLQMNSLKPEDTAVYYCYVVTTLMDYWGQGTQVTVS = 9.18
CoV2-YD-35 (VHH) VHH: DVQLVESGGGLVQAGDSLRLSCTASGRTFTTNAMGWFRQAPGKEREFVAAISWSYGTTYYSDPVEGRFTISRSNAKNTVYLQMNSLKPDDTAVYYCTLRSRFNAAAWTTEAAFDYWGQGTQVTVS = 9.33
CoV2-YD-36 (VHH) VHH: QVQLVESGGGLVQAGDSLRLSCTASGRTFTTNAMGWFRQAPGKEREFVAAITWSYGTTYYSDPVEGRFTISRSNAKNTVYLQMNSLKPDDTAVYYCTLRSRFNAAAWTTEAAFDYWGQGTQVTVS = 9.58

Shift focus to the following entry.
Please fill in: pKd reported for CoV2-YD-5 (VHH) VHH: QVQLVESGGGLVQAGGSLRLSCVASGTTISTYNLLWFRQAPGQQREWVASISSGGDTSYAGSVKGRFTISRDNTENTMYLQMNSLKPEDTAVYYCHGANAAHGMDYWGKGTQVTVS = 9.18
